# pIC50 (FF) values compiled below
biological target: UniProtKB P51449; experiment: RORγ Gal4 Reporter Gene Assay in 293T cells (firefly and renilla luciferase); assay type: cell-based, human

Study these solved cases before continuing.
[
  {
    "compound": "COCCS(=O)(=O)NC(C)(C)CNC(=O)c1cc(-c2cc(C(C)(C)C)c3c(c2)C2(CCO3)CC2)n(CC2CCCCC2)c1C",
    "result": "6.7/7.2/7.2"
  },
  {
    "compound": "Cc1c(C(=O)NCc2nc(C(N)=O)co2)cc(-c2cc(C(C)(C)C)c3c(c2)C2(CCO3)CC2)n1CC1CCCCC1",
    "result": "6.1/6.3/6.4"
  },
  {
    "compound": "Cc1c(C(=O)NC2(C#N)CCOCC2)cc(-c2ccc(S(=O)(=O)NC(C)(C)C)c(C(C)(C)C)c2)n1CC1CCCCC1",
    "result": "6.4/6.6/6.6"
  },
  {
    "compound": "Cc1c(C(=O)NC2CCS(=O)(=O)CC2)cc(-c2ccc(S(=O)(=O)NC(C)(C)C)c(C(C)(C)C)c2)n1CC1CCCCC1",
    "result": "6.0/7.3/7.1"
  }
]

For the compound "CC(=O)c1cc(-c2cc(C(=O)NC3CCOCC3)c(C)n2CC2CCCCC2)cc(C(C)(C)C)c1" , what pIC50 (FF) is on record?
6.1/6.7/6.8

If you can, please state the reported pIC50 (FF) value of "Cc1c(C(=O)NCc2cocn2)cc(-c2cc(C(C)(C)C)c3c(c2)C2(CCO3)CC2)n1CC1CCCCC1" .
6.0/6.1/6.1

Could you tell me which pIC50 (FF) is on file for "Cc1c(C(=O)NCC2(C(N)=O)CCOCC2)cc(-c2ccc(S(=O)(=O)NC(C)(C)C)c(C(C)(C)C)c2)n1CC1CCCCC1" ?
5.8/7.9/8.0

Quick check: pIC50 (FF) of "Cc1c(C(=O)NC2CCOCC2)cc(-c2cc(C(C)(C)C)cc(C3(C)CC3)c2)n1CC1CCCCC1" ?
6.8/7.6/7.6

// lookup pIC50 (FF) for "Cc1c(C(=O)N(C)CC2(CO)COC2)cc(-c2cc(C(C)(C)C)cc(C3(C)CC3)c2)n1CC1CCCCC1"
6.3/7.3/7.3

State the recorded pIC50 (FF) for this entry: "CC(C)(C)NS(=O)(=O)c1ccc(-c2cc(C(=O)NC3CCOCC3)c(Cl)n2CC2CCCCC2)c2ccccc12"
6.8/8.4/8.4

pIC50 (FF) lookup needed for "Cc1cc(-c2cc(C(=O)NC3CCOCC3)c(C)n2CC2CCCCC2)cc(C(F)(F)F)c1S(=O)(=O)NC(C)(C)C" , thanks.
6.1/6.8/7.0

Report pIC50 (FF) for "Cc1c(C(=O)NCCCCCO)cc(-c2cc(C(C)(C)C)c3c(c2)C2(CCO3)CC2)n1CC1CCCCC1" please.
6.6/7.5/7.6

Any idea what pIC50 (FF) was measured for Cc1c(C(=O)N2CC2CO)cc(-c2cc(C(C)(C)C)cc(C(C)(C)C)c2)n1CC1CCCCC1 (stereo not shown) ?
6.0/6.5/6.4

Entry "Cc1c(C(=O)NCC2(O)CCOCC2)cc(-c2ccc(S(=O)(=O)NC(C)(C)C)c(C(F)F)c2)n1CC1CCCCC1" has what pIC50 (FF)?
6.7/8.0/8.0

Can you share its pIC50 (FF)? I mean this compound: "Cc1c(C(=O)NC2COC2)cc(-c2cc(C(C)(C)C)cc(C(C)(C)CF)c2)n1CC1CCCCC1"
5.7/7.5/7.6

So what does the record say about pIC50 (FF) for "Cc1c(C(=O)NCC(C)(C)NS(C)(=O)=O)cc(-c2cc(C(C)(C)C)cc(C3(C)CC3)c2)n1CC1CCCCC1" ?
6.6/7.7/7.5

Name the recorded pIC50 (FF) for "Cc1c(C(=O)NCC(C)(C)O)cc(-c2cc(C3(C)CC3)nc(C(C)(C)C)n2)n1CC1CCCCC1" .
6.5/6.6/6.6

Report pIC50 (FF) for "Cc1c(C(=O)NC2CCOCC2)cc(-c2ccc(S(=O)(=O)NC(C)(C)C)c3cnccc23)n1CC1CCCCC1" please.
5.9/7.5/7.5

Entry Cc1c(C(=O)NC2C[S+]([O-])C2)cc(-c2cc(C(C)(C)C)c3c(c2)C2(CCO3)CC2)n1CC1CCCCC1 (stereo not shown) has what pIC50 (FF)?
6.5/6.9/7.0
